Please respond with reported IC50 for every item in the list.
test-system: BK2 receptor sites in guinea pig ileum (Cavia porcellus, UniProt O70526)
Construct: The tissue is cut into small pieces and homogenized in 20 volumes of homogenization buffer; animals from Charles River)
Sequence (O70526 whole entry): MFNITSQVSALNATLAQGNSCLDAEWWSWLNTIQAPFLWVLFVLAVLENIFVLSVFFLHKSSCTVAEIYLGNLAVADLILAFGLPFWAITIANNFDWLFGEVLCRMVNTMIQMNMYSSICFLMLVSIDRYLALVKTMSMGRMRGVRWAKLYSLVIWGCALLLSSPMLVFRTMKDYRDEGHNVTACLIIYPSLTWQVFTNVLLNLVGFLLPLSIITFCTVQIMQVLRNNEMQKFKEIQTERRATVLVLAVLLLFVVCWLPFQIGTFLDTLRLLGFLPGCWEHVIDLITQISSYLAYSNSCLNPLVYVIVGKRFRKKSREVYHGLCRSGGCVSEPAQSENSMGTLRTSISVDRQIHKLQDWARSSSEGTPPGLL
experiment-notes: Bradykinin Receptor Binding Assay (competition with 3H-bradykinin for BK2 receptor sites in guinea pig ileum)
setup-conditions: 80 pM 3H-BK, guinea pig ileum homogenate, 90 min, 25° C., pH 6.8; read-out: Bradykinin Binding in G.P. ileum, IC50
Reply numerically in nM, unit not repeated.

// returns reported IC50 for input CCN(CC)C(=O)CCCCCN1CCC(NC(=O)c2cnc3c(OC)cccc3c2Nc2ccc(C(=O)NC3CCN(Cc4ccccc4)CC3)cc2)CC1
2600

CCCCN1CCC(NC(=O)c2ccc(Nc3c(C(=O)NC4CCN(Cc5ccccc5)CC4)cnc4c(OC)cccc34)cc2)CC1 , same question.
2900

What would you report for COc1cccc2c(Nc3ccc(C(=O)NC4CCN(Cc5ccccc5)CC4)cc3)c(C(=O)NC3CCN(Cc4cccc(Cl)c4)CC3)cnc12 ?
79

// repeat for CCCCN1CCC(NC(=O)c2cnc3c(OC)cccc3c2Nc2ccc(C(=O)NC3CCN(Cc4ccccc4)CC3)cc2)CC1 and report
1200
